- System: DNA aptamer or structured DNA GGGACGACGCGTACTTCCAGTAGCCGTGCGTCGTTCAAGTCGTCCC
- EXPERIMENTAL CONTEXT: 10 mM Tris-HCl, pH 7.4
QUANTITY MEASURED: Kd (µM)
Just the number please, in µM, no unit attached.

Problem: Find the recorded Kd belonging to `CC(=O)Oc1ccc2c3c1O[C@H]1[C@@H](OC(C)=O)C=C[C@H]4[C@@H](C2)N(C)CC[C@@]341` and report it.
Solution: 4.08

----------
- Test system: DNA aptamer or structured DNA GGGACGACGCGTACCTGTGGTAGTCGTACGTCGTTCAAGTCGTCCC
- EXPERIMENTAL CONTEXT: 10 mM Tris-HCl, pH 7.4
QUANTITY MEASURED: binding call; note: call rule not given here

Answered examples (4):
C[N+]1(CC2CC2)CC[C@]23c4c5ccc(O)c4O[C@H]2C(=O)CC[C@@]3(O)[C@H]1C5 (stereo not given in full)    binds
O=C1CC[C@@]2(O)[C@H]3Cc4ccc(O)c5c4[C@@]2(CCN3CC2CC2)[C@H]1O5    no binding
CC(=O)Nc1ccc(O)cc1    no binding
C=CCN1CC[C@]23c4c5ccc(O)c4O[C@H]2C(=O)CC[C@@]3(O)[C@H]1C5    no binding

Now look at this entry.
Problem: Find the recorded binding call belonging to `CCN(CC)CCOC(=O)c1ccc(N)cc1` and report it.
Solution: no binding
